Molecular target: Concanavalin-A (Canavalia ensiformis) (UniProt P02866)
Sequence (P02866 whole entry, looked up): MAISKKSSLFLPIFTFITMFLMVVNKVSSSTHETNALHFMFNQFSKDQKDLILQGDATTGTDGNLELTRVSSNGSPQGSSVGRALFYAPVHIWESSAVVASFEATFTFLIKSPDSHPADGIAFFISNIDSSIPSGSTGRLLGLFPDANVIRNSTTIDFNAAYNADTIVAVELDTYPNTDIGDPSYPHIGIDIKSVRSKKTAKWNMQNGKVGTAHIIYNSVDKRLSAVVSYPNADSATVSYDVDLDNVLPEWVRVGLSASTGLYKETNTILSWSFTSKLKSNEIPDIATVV
Assay: ConA small-molecule binders, primary screen, artefact control for SMM control protein annotation, biochemical, small-molecule microarray, Alexa647 label, 635 nm (AID 1127);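 note: z combines 667 nm emission intensity with signal-to-noise across three replicate slides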
Details: ConA-A647 binding fluorescence, higher = more signal
Everything with composite z-score lower than 0.5 is -1; everything else, including exactly 0.5, is 1.

compound	experimental_target	label
C[N+](C)(C)CCCCCCNC(=O)[C@H]1C[C@H]2C(=O)N[C@@H](Cc3ccccc3)C(=O)N2[C@H]1c1ccc(O)cc1	Concanavalin-A (Canavalia ensiformis) (UniProt P02866)	1
O=C(NCc1ccccc1)[C@@H]1c2ccccc2C(=O)N(Cc2ccccc2C(F)(F)F)[C@H]1c1ccc(CO)cc1	Concanavalin-A (Canavalia ensiformis) (UniProt P02866)	1
N#Cc1ccc(NN2C(C(O)c3ccc(F)cc3)C=CC3C(=O)N(c4ccccc4)C(=O)C32)cc1 (configuration not stated)	Concanavalin-A (Canavalia ensiformis) (UniProt P02866)	1
COC(=O)[C@@]1(Cc2ccccc2)[C@H]2c3cc(C(=O)N(C)C)n(CCN4CNCC4=O)c3C[C@H]2CN1C(=O)c1ccccc1	Concanavalin-A (Canavalia ensiformis) (UniProt P02866)	-1
COc1ccc(NC(=O)O[C@H]2[C@H](OC(=O)Nc3ccccc3)[C@@H](OC(=O)Nc3ccccc3)[C@@H](OC)O[C@@H]2CO)cc1	Concanavalin-A (Canavalia ensiformis) (UniProt P02866)	1
C=C(CCCC)/C(=C/C[C@@H](OC(=O)c1ccncc1)c1ccccc1OCCO)c1cnc2ccccc2c1	Concanavalin-A (Canavalia ensiformis) (UniProt P02866)	1
CCOC(=O)C[C@H]1[C@H](OC(=O)c2ccc(C(=O)c3ccccc3)cc2)[C@@H](NC(=O)Cc2ccc(OC)cc2)c2cc(OCCCO)ccc2N1C(=O)c1ccccc1	Concanavalin-A (Canavalia ensiformis) (UniProt P02866)	-1

====

Test: E. coli growth modulation, two-sided OD650, primary screen, E. coli filamentation project, strain DRC41, 24 h (AID 1093);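 note: MC1000 strain lacking acrAB efflux and sulA so SOS filamentation is blocked; test concentration not given here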
Settings: OD650, 24 h, higher = more signal, called active from +8 up or from −8 down
Everything with z-score lower than -0.5 is Not satisfied; everything else, including exactly -0.5, is Satisfied.

compound	label
COC(=O)[C@@]1(Cc2ccc(F)cc2)[C@H]2c3cc(C(=O)N4CCCC4)n(CCc4ccc(O)c(O)c4)c3C[C@H]2CN1C(=O)c1ccccc1	Satisfied
COCCOC(=O)N1C(=O)[C@@]2(c3cc(C#CCC(C(=O)OC)C(=O)OC)ccc31)[C@H](C(=O)N1CCc3cc(OC)c(OC)cc3C1)[C@H]1C(=O)O[C@H](c3ccccc3)[C@H](c3ccccc3)N1[C@@H]2c1ccc(OCCO)cc1	Satisfied
CCCC[C@@H]1C[C@H]1[C@@H](NC(=O)c1cccs1)c1ccc(C(F)(F)F)cc1	Not satisfied
COc1ccc(NC(=O)O[C@H]2[C@H](OC(=O)Nc3ccccc3)[C@H](OC(=O)Nc3ccccc3)[C@@H](OC)O[C@@H]2CO)cc1	Not satisfied
C=CCC(OC(C)=O)[C@@H]1[C@@H](N(Cc2ccc(-c3cccc(C(F)(F)F)c3)o2)C(=O)c2ccc(-c3ccccc3)cc2)c2cc(OCCCO)ccc2N1C(=O)c1ccc2ccccc2n1 (stereo partly specified)	Not satisfied
COc1cc(OC)c(C(O)C2C=CC3C(=O)N(c4ccccc4)C(=O)C3N2Nc2ccccc2)cc1Br (stereo unspecified)	Not satisfied
